Assay: yeast display, Sf9 membrane polyspecificity reagent, FACS + sequencing; frameworks hold sequencing errors
measurement.label: polyreactivity (PSR sort gate)

>  <seq.string>
QVQLVESGGGLVQAGGSLRLSCAASGRTFGYYAMGWYRQAPGKERELVAAISSRGGSTSYADSVKGRFTISRDNAKNTVYLQMNSLKPEDTAVYYCAVGRPRPKYEYDYWGQGTQVTVSS

>  <reported.result>
high polyreactivity

$$$$
>  <seq.string>
QVQLVESGGGLVQAGGSLRLSCAASGLIFRDNTMGWYRQAPGKERELVAAINSGGGTSYADSVKGRFTISRDNAKNTVYLQMNSLKPEDTAVYYCAAAWWPYRYGTYYSQYDYWGQGTQVTVSS

>  <reported.result>
low polyreactivity

$$$$
>  <seq.string>
QVQLVESGGGLVQAGGSLRLTCAASGSIFYYNAMGWYRQAPGKERELVAAISSDGSTYYADSVKGRFTISRDNAKNTVYLQMNSLKPEDTAVYYSAAATLTWSRWGSYYEYDYWGQGTQVTVSS

>  <reported.result>
low polyreactivity

$$$$
>  <seq.string>
QVQLVESGGGLVQAGGSLRLSCAASGNIFTQYGMGWYRQAPGKERELVAAISRRGGSTYYADSVKGRFTISRDNAKNTVYLQMNSLNPEDTAVYYCARRTNRPPWGFEYWGQGTQVTVSS

>  <reported.result>
high polyreactivity

$$$$
>  <seq.string>
QVQLEESGGGLVQAGGSLRLSCAATGSIFYSYAMGSNRQAPGKEMELVATISTGGSTDYADSVKGRYTISRDNAKNTVYLQMNSLKPEETAVYYCATSGPYWWLVYWGQGTQVTVSS

>  <reported.result>
low polyreactivity

$$$$
>  <seq.string>
QVQLVESGGGLVHAGGSLRLSCASSGRTFAYSAMGWYRQAPGIERELVATITSAGSTNYADSVKGRFTISRDNAKNTVYLQMNSLKPEDTAVYYCNRRVWGSSRLKYNYWGQGTQVTVSS

>  <reported.result>
high polyreactivity

$$$$
>  <seq.string>
QVQLVDSGGGLVQAGGSLRLSCAASGSIYGYYAMGWYRQAPGKELVLVAVITSGATTNYADSLKGRFSISRDNAKNTGYLQMNSLKPEDTAVYYCAARPQVKRGRYGYWGQGTQVTVSS

>  <reported.result>
low polyreactivity

$$$$
>  <seq.string>
QVQLVESGGGLVQAGGSLRLSCAASGSTFAGNAMGWYRQAPGKERELVAGITSSGARTYYADSVKGRFTISRDNAKNTVYLQMNSLKPEDTAVYYCNKYHFSPYDYWGQGTQVTVSS

>  <reported.result>
high polyreactivity

$$$$
>  <seq.string>
QVQLVESGGGLVQAGGSLRLSCAASGRTFRRYAMGWYRQAPGKERELVAASSRGANTNYADSVKGRFTISRDNAKNTFYLQMNSLKPEDTAVYYCNAKQAGYYFAFGYWGQGTQVTVSS

>  <reported.result>
high polyreactivity

$$$$
>  <seq.string>
QVQLVESGGGLVQAGGSLRLSCAASGRTFFHYAMGWYRQAPGKERELVAGISSGGRTKYADSVKGRFTISRDNAKNTVYLQMNSLKPEDTAVYYCAASYIVWLTRGAPRKRFDYWGQGTQVTVSS

>  <reported.result>
high polyreactivity

$$$$
>  <seq.string>
QVQLVESGGGLVQAGGSLRLSCAASGSTFSRYAMGWDRQAPGKEMELVAAISSSGGGTYYADSVKGRFTISRDNAKNTVYLQMNSLKPEDTAVSYCAAKRVHGATGYWGQGTQVTVSS

>  <reported.result>
high polyreactivity

$$$$

====

Assay: yeast display, Sf9 membrane polyspecificity reagent, FACS + sequencing; frameworks hold sequencing errors

>  <seq.string>
QVQLVESGGGLVQAGGSLRLSCAASGIIFTSNTMGWYRQAPGKEREFVASINWNGSSTNADSVKGRFTISRDNAKNTVYLQMNSLKPEDTAVYYCNADYNRNSVQFSLYDYWGQGTQVTVSS

>  <polyreactivity (PSR sort gate)>
low polyreactivity

$$$$
>  <seq.string>
QVQLVESGGGLVQAGGSLRLSCAASGSILTGNAMGWYRPAPGKERELVAAISAGGTRTYYADSVKGRFTISRDNAKNTVYLQMNSLKPEDTAVYYCAADSSKRIGYDYWGQGTQVTVSS

>  <polyreactivity (PSR sort gate)>
high polyreactivity

$$$$
>  <seq.string>
QVQLVESGGGIVQAGGSLRLSCAASGRTFRPYAMGWYRQAPGKERELVAAITSGGSTYYADSVKGRFTISRDNAKNTVYLQMNSLKPEDTAVYYCNAKYYYQPPYDYWGQGTQVTVSS

>  <polyreactivity (PSR sort gate)>
low polyreactivity

$$$$
>  <seq.string>
QVQLVESGGGLVQAGGSLRLSCAASGFTFGYYAMGRYRQAPGKERELVATITSSGASTYADSVKGRFTISRDNAKNTVYLLMNSLKPEDTAVYYCAADRLPSYWSWYGYDYWGQGTQVTVSS

>  <polyreactivity (PSR sort gate)>
high polyreactivity

$$$$
>  <seq.string>
QVQLVESGGGLVQAGGSLRLSCAASGITFTQYAMGWYRQAPGKELELVAAITSSGGSTYYADSVKERFTISRDNAKNTVYLQMNSLKPEDTAVYYFIAVRRRQSDYWGQGTQVTVSS

>  <polyreactivity (PSR sort gate)>
high polyreactivity

$$$$

====

Assay: yeast display, Sf9 membrane polyspecificity reagent, FACS + sequencing; frameworks hold sequencing errors

>  <seq.string>
HFQLVESGGGIVQAGGSLRLSCAASGRTCFYNAMGWYRQAPGKERELVAAISWSGGSTYYADSVKGRFTISRDNAKNPVSLQMNSLNREDTAVYYCNAAYGRRYDYWGQGTQVTVSS

>  <polyreactivity (PSR sort gate)>
high polyreactivity

$$$$
>  <seq.string>
QVQLVESGGGLVQAGGSLRLSCAASGSIFRFYPLGWYRQSPGKERELVAGITWSGASTYYADSVKGRFTISRDNAKNTVYLQMNSLKPEDTAVYYCAKLYRLDGFYYWGQGTQVTVSS

>  <polyreactivity (PSR sort gate)>
high polyreactivity

$$$$
>  <seq.string>
QVQLVESGGVLVQAGGSLRLSCAASGRIFSYYAMGWYRQAPGKERELVARITSRGASTYYADSVKGRFTISRDNAKNTVYLQMNSLKPEDTAVYYCAARKDSTRRFDYWGQGTQVTVLS

>  <polyreactivity (PSR sort gate)>
high polyreactivity

$$$$
>  <seq.string>
QVQLVESGGGLVQAGGSLRLSCAASGSTFVVYAMGWYRQAPGKERELVAAIDLSVGDTYYADSVKGRFTISRDNAKNTVYLQMNSLKPEDTAVYYCAAEFYSYKYPDYDYWGQGTQVTVSS

>  <polyreactivity (PSR sort gate)>
low polyreactivity

$$$$
>  <seq.string>
QFQLVESGGGLVQAGGSLRLSCAASGFIFYRNAMGGYRQAPGKERELVAGITSGGRPYYADSVKGRFTISRDNAKNTVYLQMNCLKPEDTGVYYCAARRSRPTYYSTGVNYWGQGTQVTVSS

>  <polyreactivity (PSR sort gate)>
high polyreactivity

$$$$
>  <seq.string>
QVQLVESGVGLVQAGGSLRLSCAASGRIFHLYAMGWYRQAPGKERELVAAITFSGGSTYYADSVKGRFTISRDNAMNTVYLQMNSLKPEDTAVYYFAKRSFYWFSSRLPFKYDYWGQGTQVTVSS

>  <polyreactivity (PSR sort gate)>
low polyreactivity

$$$$
>  <seq.string>
QVQLVESGGGLVQAGGSLRLICAASGIIFTGYTMGWYRPAPGKERELVAAITWRGGSTYYADSVKGRFTISRDNAKNTVYLQMNSLKPEDTAVYYCAAEGWYSWDDDYWGQGTQVTVSS

>  <polyreactivity (PSR sort gate)>
low polyreactivity

$$$$
>  <seq.string>
QVQLVESGGGLVQAGCSLRLSCAASGRTFPPYAMGWYRQAPRKERELVAAISRRAGTTYYADSVKGRFTISRDNAKNTVYLQMNSLKPEDTAVYYCAALSESSSYGYWGQGTQVTVSS

>  <polyreactivity (PSR sort gate)>
low polyreactivity

$$$$
>  <seq.string>
QVQLVESGGGLVQAGGSLRLSCAASGSTFYYNAMGWYRTAPGKERELVAVIDGSGGFTYYADSVKGRFTISRDNAKNTVYLQMNSLKPEDTAVYYCNADLVYNTFIFSGGDEYDYWGQGTQVTVSS

>  <polyreactivity (PSR sort gate)>
high polyreactivity

$$$$
>  <seq.string>
QVQLVESGGGLVQAGGSLRLSCAASGLIFGGYAMGWYRQAPGKERELVATITSGGSTNYADSVKGRFTISRDNAKNTVYLQMNSLKPEDTAVYYCAAAERQGFPSVYPTYQWDYDYWGQGTQVTVSS

>  <polyreactivity (PSR sort gate)>
low polyreactivity

$$$$
>  <seq.string>
QVQLVESGGGLVQAGGSLRLSCAASGSTFKHNTMGWYRQAPGKERELVAAITSSGGTYYADSVKGRFTISRDNAKNTVYLQMNSLKPEDTAVYYCAARVTYRGRAYDYWGQGTQVTVSS

>  <polyreactivity (PSR sort gate)>
high polyreactivity

$$$$
>  <seq.string>
QVQLVESGGGLVQAGGSLRLSCAASGSIFYQNAMGWSRQAPGKEWELVAAISWSGGSTYYADSVKGRFTISRDNAKNTDFLQMNSLKPEDTAVYYCNKYVRFRGGAYVTGYDYWGQGTQVTVSS

>  <polyreactivity (PSR sort gate)>
high polyreactivity

$$$$
>  <seq.string>
QVQLVESGGGLVQAGGSLRLSCAASGSTFGSNAMGWYRQAPGKERELVAAITRRGGSTYYADSVKGRFTISRDKAKNTVYLQMNSLKPEDTAVYYCAAQIHPRRDYSAFDYWGQGTQVTVSS

>  <polyreactivity (PSR sort gate)>
low polyreactivity

$$$$
>  <seq.string>
QVQLVESGGGLVQAGGSLRLICAASGFTFVANAMGWYRQAPGKERELVAVIDWDDGSTYYADSVKGRFTISRDNAKNTVYLQMYSLKPEDTAVYYCARDVYASPRLYTSRYNYWGQGTQVTVSS

>  <polyreactivity (PSR sort gate)>
low polyreactivity

$$$$
>  <seq.string>
QVQLVESGGGLVQAGGSLRLSCAASGSIFVRNAKGCYRQAPWKERELVAAITATGGRTYYADSVKGRFTISRDNAKNTVYLQMNSLKPEDTAVYYCAAYYPRSGYDYWGQGTQVNVSS

>  <polyreactivity (PSR sort gate)>
high polyreactivity

$$$$
>  <seq.string>
QVQLVESGGGLVQAGGSLRLSCAASGRIFIANTMGWYRQAPGKERELVAAITQRGDSTYYADSVKGRFTISRDNAKNTVYLQMNSLKPEDTAVYYCAARYYLSSYVRYNYWGQGTQVTVSS

>  <polyreactivity (PSR sort gate)>
high polyreactivity

$$$$
>  <seq.string>
QVQLVESVGGLVQAGGSLRLSCAASGSTSYDYAMGWNRQAPGKERELVAAISGSSSTTYYADSVKGRFTISRDNAKNTVYLQMNSLKPEDTAVYYCNAVTTSGSGYGYWGQGTQVTVSS

>  <polyreactivity (PSR sort gate)>
low polyreactivity

$$$$
>  <seq.string>
QVQLGESRRGLVQAGGSLRLSCAASGITFWYNATGWYRQSPGKERELDAAISRSAGSTYYADSVKGRFTISRDNAKNTVYLQMNSLKPEDTAVYYCAAKTPGRYYYWGQGTQVTVSS

>  <polyreactivity (PSR sort gate)>
high polyreactivity

$$$$
>  <seq.string>
QVQLVESGGGLVQAGGSLRISCAASGFTFYYNAMGWYRQAPGKERELVASISSNGTSTYYADSVKGRFTISRDNAKNTVYLQMNSLKPEDTAVYYCNVDIFDPRTYDYWGQGTQVTVSS

>  <polyreactivity (PSR sort gate)>
low polyreactivity

$$$$
>  <seq.string>
QVQLVESGGGLVQAGGSLRLTCAASGTFFMGWYRQAPGKERELVAGISISDGSTYYADSVKGRFTISRDNAKNTVYLQMNSLKPEDTAVYYCAADSHYLYDYWGQGTQVTVSS

>  <polyreactivity (PSR sort gate)>
low polyreactivity

$$$$
>  <seq.string>
QDQLVESGGGLVQAGGSLRLSCAASGSTLRYYAMGWYRQAPGKERELVAAITYSAGRTSYADSVKGRFTISRDNAKNTVYLQMNSLKPEDTAVYYCATQWHSYLRRYDYWGQGTQVTVSS

>  <polyreactivity (PSR sort gate)>
low polyreactivity

$$$$
